# testSystem: Heat shock protein HSP 90 (Oryctolagus cuniculus) (UniProt P11500)
# methodDescription: Inhibition of HSP90 in rabbit reticulocyte lysate at 250 uM after 90 mins by luciferase renaturation assay
Activity calls are given as the source filed them. No cut-off for these calls is given here.
Possible outcomes: active, inactive

| substance | labelClass |
| --- | --- |
| Ac-DPQTHANRIYRMIKLGLG-NH2 | active |
| Ac-DPFTHANRIYRMIKLGLG-NH2 | active |
| Ac-DPQTHANRIYRLIKLGLG-NH2 | active |
| Ac-DPQTHANRIYRMIKLGNG-NH2 | active |
| Ac-DPQTHANRIWRMIKLGLG-NH2 | active |
| Ac-DPQTFANRIYRMIKLGLG-NH2 | active |
| Ac-DPQTHANRIYRMIKLLLG-NH2 | active |
| Ac-FQAEIAQLMSLIINTFY-NH2 | inactive |

* * *

# testSystem: Heat shock protein HSP 90 (Oryctolagus cuniculus, UniProt P11500)
# Sequence (P11500 whole entry): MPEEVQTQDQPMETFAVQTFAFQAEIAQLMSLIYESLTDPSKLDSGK
# methodDescription: Inhibition of HSP90 in rabbit reticulocyte lysate after 90 mins by luciferase renaturation assay
pIC50: −log10 of the molar value.
assayReadout: pIC50

| substance | testSystem | assayReadout | number |
| --- | --- | --- | --- |
| Ac-DPQTHANRIYRMIKLGLG-NH2 | Heat shock protein HSP 90 (Oryctolagus cuniculus, UniProt P11500) | pIC50 | 3.63 |

* * *

# methodDescription: Solubility in phosphate buffer
# Type: physicochemical
Bridge positions count the residues as written; N and C are the ends. Peptide text beside a SMILES is read from it.
assayReadout: solubility

| compound | result |
| --- | --- |
| CSCC[C@@H]1NC(=O)[C@H](CCCNC(=N)N)NC(=O)[C@H](Cc2ccc(O)cc2)NC(=O)[C@@H](NC(=O)[C@H](CCCNC(=N)N)NC(=O)[C@H](CC(N)=O)NC(=O)[C@H](C)NC(=O)[C@H](Cc2cnc[nH]2)NC(=O)[C@@H](NC(=O)[C@H](CCC(N)=O)NC(=O)[C@@H]2CCCN2C(=O)[C@H](CC(=O)O)NC(C)=O)[C@@H](C)O)CCCCNC(=O)C[C@@H](C(=O)N[C@@H](CCCCN)C(=O)N[C@@H](CC(C)C)C(=O)NCC(=O)N[C@@H](CC(C)C)C(=O)NCC(N)=O)NC1=O (Ac-DPQTHANRKYRMDKLGLG-NH2; lactam 9-13) | ≥ 100 µM |

* * *

# methodDescription: Solubility in phosphate buffer
# Format: physicochemical
Each entry below lists one item and its recorded solubility value.
assayReadout: solubility

| substance | result |
| --- | --- |
| Ac-DPQTHANRIYRMIKLGLG-NH2 | ≥ 100 µM |
| Ac-DPQTHANRIYRMIKLWLG-NH2 | ≥ 100 µM |
| Ac-DPQTHANRIYRMIKLLLG-NH2 | ≥ 100 µM |

* * *

# methodDescription: Cytotoxicity against human MDA-kb2 cells assessed as reduction in cell viability after 18 hrs by Promega cell titer-Glo assay
# Assay type: functional
# experimentalConditions: MDA-kb2, 18 h, read-out: LC50 (the source's name)
Bridge positions count the residues as written; N and C are the ends. Peptide text beside a SMILES is read from it.
assayReadout: CC50 (µM)

| molecule | resultComparator | number |
| --- | --- | --- |
| CO[C@@H]1[C@@H](OC(N)=O)[C@@H](O)[C@H](Oc2ccc3c(O)c(NC(=O)c4ccc(O)c(CC=C(C)C)c4)c(=O)oc3c2C)OC1(C)C | = | 690 |
| COC1=C2C[C@@H](C)C[C@H](OC)[C@H](O)[C@@H](C)/C=C(\C)[C@H](OC(N)=O)[C@@H](OC)/C=C\C=C(/C)C(=O)NC(=CC1=O)C2=O | > | 2 |
| CSCC[C@@H]1NC(=O)[C@H](CCCNC(=N)N)NC(=O)[C@H](Cc2ccc(O)cc2)NC(=O)[C@@H](NC(=O)[C@H](CCCNC(=N)N)NC(=O)[C@H](CC(N)=O)NC(=O)[C@H](C)NC(=O)[C@H](Cc2cnc[nH]2)NC(=O)[C@@H](NC(=O)[C@H](CCC(N)=O)NC(=O)[C@@H]2CCCN2C(=O)[C@H](CC(=O)O)NC(C)=O)[C@@H](C)O)CCCCNC(=O)C[C@@H](C(=O)N[C@@H](CCCCN)C(=O)N[C@@H](CC(C)C)C(=O)NCC(=O)N[C@@H](CC(C)C)C(=O)NCC(N)=O)NC1=O (Ac-DPQTHANRKYRMDKLGLG-NH2; lactam 9-13) | > | 120 |
| CO[C@H]1[C@H](OC(=O)c2ccc(C)[nH]2)[C@H](O)[C@@H](Oc2ccc3c(O)c(NC(=O)c4c[nH]c(C(=O)Nc5c(O)c6ccc(O[C@H]7OC(C)(C)[C@@H](OC)[C@H](OC(=O)c8ccc(C)[nH]8)[C@@H]7O)c(C)c6oc5=O)c4C)c(=O)oc3c2C)OC1(C)C | = | 19.1 |
